Recorded pest or weed control at 125 g/ha for the following compounds
- Test system: ragweed (common ragweed, Ambrosia elatior)
- EXPERIMENTAL_PROTOCOL: Test A preemergence
- Assay type: in vivo
- SETTINGS: Ambrosia artemisiifolia, pre-emergence, 240 h, Preemergence, 125 g ai/ha; 0 to 100 scale (0 no effect, 100 complete control); read-out: Plant response rating, Ragweed
- Description: […]
All answers are understood in %, so give the number only.

[
  {
    "COMPOUND": "CN1C[C@H](c2ccc(C(F)F)cc2)[C@@H](C(=O)Nc2cccc(F)c2F)C1=O [Compound 1383]",
    "UNIT_DESCRIPTOR": "%",
    "pest or weed control at 125 g/ha": 80
  }
]

Consider CN1C[C@H](c2cccc(C(F)(F)F)c2)[C@@H](C(=O)Nc2cccnc2F)C1=O [Compound 1397] . Its measured pest or weed control at 125 g/ha is 0

Consider CC(C)=Cc1cc([C@H]2CN(C)C(=O)[C@@H]2C(=O)Nc2cccc(F)c2F)ccc1C(F)(F)F [Compound 1337] . Its measured pest or weed control at 125 g/ha is 0

Consider Cc1ccc([C@H]2CN(C)C(=O)[C@@H]2C(=O)Nc2cccc(F)n2)cc1 [Compound 1375] . Its measured pest or weed control at 125 g/ha is 70

Consider CN1C[C@H](c2cccc(C(C)(F)F)c2)[C@@H](C(=O)Nc2ccc(F)cc2F)C1=O [Compound 1319] . Its measured pest or weed control at 125 g/ha is 0

Consider Cc1ccncc1NC(=O)[C@H]1C(=O)N(C)C[C@@H]1c1ccc2c(c1)OC(F)(F)O2 [Compound 1351] . Its measured pest or weed control at 125 g/ha is 0

Consider Cc1cccc([C@H]2CN(C)C(=O)[C@@H]2C(=O)Nc2ccc(F)nc2F)c1 [Compound 1349] . Its measured pest or weed control at 125 g/ha is 0
